biological target: full length N-terminally FLAG-tagged PARP1 (Homo sapiens); assay: PARP1 biochemical DELFIA assay (auto-PARylation); parameters: recombinant full length human N-terminally FLAG-tagged PARP1; conditions: binned IC50, biochemical auto-PARylation assay
Sequence (P09874 whole entry): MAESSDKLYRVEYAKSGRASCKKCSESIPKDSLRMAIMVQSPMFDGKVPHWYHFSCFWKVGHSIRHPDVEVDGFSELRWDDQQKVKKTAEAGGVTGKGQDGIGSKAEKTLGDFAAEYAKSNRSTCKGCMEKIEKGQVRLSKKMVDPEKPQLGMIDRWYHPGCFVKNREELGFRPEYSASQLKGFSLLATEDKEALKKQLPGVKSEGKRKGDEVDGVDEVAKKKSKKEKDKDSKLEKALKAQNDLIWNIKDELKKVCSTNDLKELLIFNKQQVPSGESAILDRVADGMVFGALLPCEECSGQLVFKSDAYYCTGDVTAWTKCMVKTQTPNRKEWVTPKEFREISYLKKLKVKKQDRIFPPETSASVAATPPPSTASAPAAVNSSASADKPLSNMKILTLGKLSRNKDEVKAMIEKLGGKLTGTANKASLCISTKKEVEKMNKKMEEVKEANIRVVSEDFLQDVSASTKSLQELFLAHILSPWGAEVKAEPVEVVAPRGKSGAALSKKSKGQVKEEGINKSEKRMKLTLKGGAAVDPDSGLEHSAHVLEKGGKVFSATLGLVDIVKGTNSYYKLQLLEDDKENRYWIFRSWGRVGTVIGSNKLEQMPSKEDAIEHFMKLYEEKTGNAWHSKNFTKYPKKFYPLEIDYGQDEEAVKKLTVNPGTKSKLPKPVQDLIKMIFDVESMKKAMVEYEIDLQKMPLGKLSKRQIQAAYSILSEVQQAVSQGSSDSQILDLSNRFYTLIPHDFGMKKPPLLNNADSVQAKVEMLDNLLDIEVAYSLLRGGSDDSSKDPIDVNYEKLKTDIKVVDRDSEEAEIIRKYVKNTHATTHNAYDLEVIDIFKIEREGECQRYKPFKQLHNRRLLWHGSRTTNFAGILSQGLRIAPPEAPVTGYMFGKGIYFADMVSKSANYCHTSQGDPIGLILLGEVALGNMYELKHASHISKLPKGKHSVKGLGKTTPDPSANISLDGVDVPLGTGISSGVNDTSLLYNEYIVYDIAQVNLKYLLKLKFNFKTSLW
pIC50: −log10 of the molar value.
outcome_measure: pIC50

Recorded pIC50 of CNC(=O)c1ccc(N2CCC(N3CC4(c5nc6ncccc6c(=O)[nH]5)CC3C4)CC2)c(F)n1 [Compound 303] , please.
> 8.00

How about CNC(=O)c1ccc(N2CCC(N3CC4(c5nc6cccc(F)c6c(=O)[nH]5)CC3C4)CC2)c(F)n1 [Compound 228] ?
> 8.00

How about CNC(=O)c1ccc(N2CCC(N3CCC(c4cc5ccc(F)cc5c(=O)[nH]4)C3)CC2)c(C#N)n1 (single isomer, unassigned) [Compound 396b] ?
> 8.00

How about O=c1[nH]c(C2CCN(C3CCN(c4ccc(-c5nnn[nH]5)nc4)CC3)C2)nc2ccccc12 (racemic) [Compound 263rac] ?
7.00 to 8.00

How about CNC(=O)c1ccc(N2CCC(N3CCC(c4cc5c(F)cncc5c(=O)[nH]4)C3)CC2)cn1 (single isomer, unassigned) [Compound 331b] ?
7.00 to 8.00

How about CCc1cnc(C23CC(C2)N(C2CCN(c4ccc(C(=O)NC)nc4C(F)(F)F)CC2)C3)[nH]c1=O [Compound 310] ?
7.00 to 8.00

How about CNC(=O)c1ccc(N2CCC(N3CC4(c5nc6cccc(F)c6c(=O)[nH]5)CC3C4)CC2)cn1 [Compound 227] ?
> 8.00

How about CNC(=O)c1cc(Cl)c(N2CCC(N3CCC(c4cc5cccc(F)c5c(=O)[nH]4)C3)CC2)cn1 (racemic) [Compound 248rac] ?
> 8.00

How about CNC(=O)c1ccc(N2CCC(N3CCC(c4ccc(CC(F)(F)F)c(=O)[nH]4)C3)CC2)cn1 (racemic) [Compound 243rac] ?
7.00 to 8.00

How about CNC(=O)c1ccc(N2CCC(N3CCC(c4cc5c(F)ccc(F)c5c(=O)[nH]4)C3)CC2)c(F)n1 (single isomer, unassigned) [Compound 323b] ?
> 8.00

How about CNC(=O)c1ccc(N2CCC(N3CCC(c4nc5c(c(=O)[nH]4)CCC5)C3)CC2)cn1 (single isomer, unassigned) [Compound 283a] ?
6.00 to 7.00

How about CNC(=O)c1ccc(N2CCC(N3CCC(c4ccc(CC5CC5)c(=O)[nH]4)C3)CC2)c(F)n1 (single isomer, unassigned) [Compound 313b] ?
> 8.00

How about CS(=O)(=O)Nc1ccc(N2CCC(N3CCC(c4nc5ccccc5c(=O)[nH]4)C3)CC2)cc1 (single isomer, unassigned) [Compound 250a] ?
6.00 to 7.00

How about CCc1cnc(C23CC(C2)N(C2CCN(c4ccc(C(=O)NC)nc4)CC2)C3)[nH]c1=O [Compound 299] ?
> 8.00

How about CCc1ccc(C2CCN(C3CCN(c4ccc(OC(F)F)nc4)CC3)C2)[nH]c1=O (single isomer, unassigned) [Compound 382b] ?
> 8.00

How about O=C(NCC(F)F)c1ccc(N2CCC(N3CCC(c4cc5cccc(F)c5c(=O)[nH]4)C3)CC2)c(F)n1 (single isomer, unassigned) [Compound 390b] ?
> 8.00

How about CNC(=O)c1ccc(N2CCC(N3CCC(c4cc5ncc(Cl)cc5c(=O)[nH]4)C3)CC2)c(F)n1 (single isomer, unassigned) [Compound 344a] ?
> 8.00

How about CCc1ccc(C2CC(=O)N(C3CCN(c4ccc(C(=O)NC)nc4)CC3)C2)[nH]c1=O (racemic) [Compound 406rac] ?
> 8.00

How about CCCc1ccc(C2CCN(C3CCN(c4ccc(C(=O)NC)nc4F)CC3)C2)[nH]c1=O (single isomer, unassigned) [Compound 269b] ?
6.00 to 7.00

How about CCCc1ccc(C2CCN(C3CCN(c4ccc(C(=O)NC)nc4F)CC3)C2)[nH]c1=O (single isomer, unassigned) [Compound 269a] ?
> 8.00

How about CNC(=O)c1ccc(N2CCC(N3CC4(c5nc6ccc(F)cc6c(=O)[nH]5)CC3C4)CC2)cn1 [Compound 238] ?
> 8.00

How about CS(=O)(=O)Nc1ccc(N2CCC(N3CCC(c4cc5ccccc5c(=O)[nH]4)C3)CC2)cc1 (single isomer, unassigned) [Compound 251b] ?
7.00 to 8.00

How about N#Cc1nc(C(=O)NC2CC2)ccc1N1CCC(N2CCC(c3cc4ccc(F)cc4c(=O)[nH]3)C2)CC1 (single isomer, unassigned) [Compound 397a] ?
> 8.00

How about CNC(=O)c1ccc(N2CCC(N3CCC(c4cc5ccc(F)cc5c(=O)[nH]4)C3)CC2)c(Cl)n1 (single isomer, unassigned) [Compound 223b] ?
> 8.00

How about CNC(=O)c1ccc(N2CCC(N3CCC(c4cc5c(c(=O)[nH]4)CCCC5)C3)CC2)cn1 (racemic) [Compound 336rac] ?
> 8.00
